Reported GRinf is given for each of the following molecules.
Test system: Mycobacterium tuberculosis Erdman (autoluminescent)
Assay: GRinf, maximum normalised growth rate inhibition (three-drug combination) (unitless (-1 to 1)); higher = less effect (negative = killing)
Settings: in vitro model: butyrate; time point: constant (~7 days, model-specific)
Respond with the number and no other words.

Recorded GRinf for COc1nc2ccc(Br)cc2cc1[C@@H](c1ccccc1)[C@@](O)(CCN(C)C)c1cccc2ccccc12 [bedaquiline] + CC(C)/N=c1\cc2n(-c3ccc(Cl)cc3)c3ccccc3nc-2cc1Nc1ccc(Cl)cc1 [clofazimine] + COc1c(N2C[C@@H]3CCCN[C@@H]3C2)c(F)cc2c(=O)c(C(=O)O)cn(C3CC3)c12 [moxifloxacin] with Mycobacterium tuberculosis Erdman (autoluminescent), please? -0.111

Same lookup for CC[C@@H](CO)NCCN[C@@H](CC)CO [ethambutol] + CC(=O)NC[C@H]1CN(c2ccc(N3CCOCC3)c(F)c2)C(=O)O1 [linezolid] + NC(=O)c1cnccn1 [pyrazinamide] , please. 0.0745

###

Test system: Mycobacterium tuberculosis Erdman (autoluminescent)
Experiment: Einf, fitted maximum growth inhibition of three-drug combination (fraction); higher = stronger maximal inhibition
Conditions: in vitro model: cholesterol 0.05 mM; time point: terminal (~4-5 doublings, model-specific)
Tick Met if Einf is 0.9 or greater. Tick Not met if Einf is less than 0.9.

Below, 4 compounds whose answers are already recorded.
- compound: "COc1c(N2C[C@@H]3CCCN[C@@H]3C2)c(F)cc2c(=O)c(C(=O)O)cn(C3CC3)c12 [moxifloxacin] + O=[N+]([O-])c1cn2c(n1)OC[C@@H](OCc1ccc(OC(F)(F)F)cc1)C2 [pretomanid] + CO[C@H]1/C=C/O[C@@]2(C)Oc3c(C)c(O)c4c(O)c(c(/C=N/N5CCN(C)CC5)c(O)c4c3C2=O)NC(=O)/C(C)=C\\C=C\\[C@H](C)[C@H](O)[C@@H](C)[C@@H](O)[C@@H](C)[C@H](OC(C)=O)[C@@H]1C [rifampicin]"
  target.or.test.system: "Mycobacterium tuberculosis Erdman (autoluminescent)"
  class: "Not met"
- compound: "CC(C)/N=c1\\cc2n(-c3ccc(Cl)cc3)c3ccccc3nc-2cc1Nc1ccc(Cl)cc1 [clofazimine] + COc1c(N2C[C@@H]3CCCN[C@@H]3C2)c(F)cc2c(=O)c(C(=O)O)cn(C3CC3)c12 [moxifloxacin] + NC(=O)c1cnccn1 [pyrazinamide]"
  target.or.test.system: "Mycobacterium tuberculosis Erdman (autoluminescent)"
  class: "Met"
- compound: "CC[C@@H](CO)NCCN[C@@H](CC)CO [ethambutol] + NNC(=O)c1ccncc1 [isoniazid] + CO[C@H]1/C=C/O[C@@]2(C)Oc3c(C)c(O)c4c(O)c(c(/C=N/N5CCN(C6CCCC6)CC5)c(O)c4c3C2=O)NC(=O)/C(C)=C\\C=C\\[C@H](C)[C@H](O)[C@@H](C)[C@@H](O)[C@@H](C)[C@H](OC(C)=O)[C@@H]1C [rifapentine]"
  target.or.test.system: "Mycobacterium tuberculosis Erdman (autoluminescent)"
  class: "Not met"
- compound: "NNC(=O)c1ccncc1 [isoniazid] + NC(=O)c1cnccn1 [pyrazinamide] + CO[C@H]1/C=C/O[C@@]2(C)Oc3c(C)c(O)c4c(O)c(c(/C=N/N5CCN(C)CC5)c(O)c4c3C2=O)NC(=O)/C(C)=C\\C=C\\[C@H](C)[C@H](O)[C@@H](C)[C@@H](O)[C@@H](C)[C@H](OC(C)=O)[C@@H]1C [rifampicin]"
  target.or.test.system: "Mycobacterium tuberculosis Erdman (autoluminescent)"
  class: "Not met"

Next:
Kindly determine if Einf recorded for CC(C)/N=c1\cc2n(-c3ccc(Cl)cc3)c3ccccc3nc-2cc1Nc1ccc(Cl)cc1 [clofazimine] + CC[C@@H](CO)NCCN[C@@H](CC)CO [ethambutol] + CO[C@H]1/C=C/O[C@@]2(C)Oc3c(C)c(O)c4c(O)c(c(/C=N/N5CCN(C)CC5)c(O)c4c3C2=O)NC(=O)/C(C)=C\C=C\[C@H](C)[C@H](O)[C@@H](C)[C@@H](O)[C@@H](C)[C@H](OC(C)=O)[C@@H]1C [rifampicin] is above or exactly 0.9. Not met

###

Tested on: Mycobacterium tuberculosis Erdman (autoluminescent)
Assay: FIC50 (Loewe) at 50% inhibition (log2); higher = more antagonistic
Settings: in vitro model: acidic pH 5.7; time point: constant (~7 days, model-specific)
readout: FIC50

- compound: "NC(=O)c1cnccn1 [pyrazinamide] + CO[C@H]1/C=C/O[C@@]2(C)Oc3c(C)c(O)c4c(O)c(c(/C=N/N5CCN(C6CCCC6)CC5)c(O)c4c3C2=O)NC(=O)/C(C)=C\\C=C\\[C@H](C)[C@H](O)[C@@H](C)[C@@H](O)[C@@H](C)[C@H](OC(C)=O)[C@@H]1C [rifapentine]"
  FIC50: -0.598

Lab note: next compound to report on.
# get_value(readout= FIC50, system= Mycobacterium tuberculosis Erdman (autoluminescent)) for CC(C)/N=c1\cc2n(-c3ccc(Cl)cc3)c3ccccc3nc-2cc1Nc1ccc(Cl)cc1 [clofazimine] + O=[N+]([O-])c1cn2c(n1)OC[C@@H](OCc1ccc(OC(F)(F)F)cc1)C2 [pretomanid] -0.0507

###

System: Mycobacterium tuberculosis Erdman (autoluminescent)
Assay: AUC25, normalised area under dose response up to IC25 (three-drug combination) (fraction (0-1)); higher = more potent at low dose
Details: in vitro model: dormancy (butyrate + nitrate, low O2); time point: terminal (~4-5 doublings, model-specific)
readout: AUC25

If you can, please state the reported AUC25 value of CC(C)/N=c1\cc2n(-c3ccc(Cl)cc3)c3ccccc3nc-2cc1Nc1ccc(Cl)cc1 [clofazimine] + NNC(=O)c1ccncc1 [isoniazid] + O=[N+]([O-])c1cn2c(n1)OC[C@@H](OCc1ccc(OC(F)(F)F)cc1)C2 [pretomanid] . 0.0744

###

Each entry below carries its reported FIC90.
Tested on: Mycobacterium tuberculosis Erdman (autoluminescent)
Assay: FIC90 (Loewe) at 90% inhibition (log2); higher = more antagonistic
Settings: in vitro model: valerate; time point: terminal (~4-5 doublings, model-specific)
// no unit, no text: just the number

- compound: "NNC(=O)c1ccncc1 [isoniazid] + CO[C@H]1/C=C/O[C@@]2(C)Oc3c(C)c(O)c4c(O)c(c(/C=N/N5CCN(C6CCCC6)CC5)c(O)c4c3C2=O)NC(=O)/C(C)=C\\C=C\\[C@H](C)[C@H](O)[C@@H](C)[C@@H](O)[C@@H](C)[C@H](OC(C)=O)[C@@H]1C [rifapentine]"
  target.or.test.system: "Mycobacterium tuberculosis Erdman (autoluminescent)"
  result: 1.18

Here is another compound to look at.
Look up FIC90: NC(=O)c1cnccn1 [pyrazinamide] + CO[C@H]1/C=C/O[C@@]2(C)Oc3c(C)c(O)c4c(O)c(c(/C=N/N5CCN(C6CCCC6)CC5)c(O)c4c3C2=O)NC(=O)/C(C)=C\C=C\[C@H](C)[C@H](O)[C@@H](C)[C@@H](O)[C@@H](C)[C@H](OC(C)=O)[C@@H]1C [rifapentine] 0.534

###

Tested on: Mycobacterium tuberculosis Erdman (autoluminescent)
Assay: FIC50 (Loewe) at 50% inhibition (log2); higher = more antagonistic
Details: in vitro model: dormancy (butyrate + nitrate, low O2); time point: constant (~7 days, model-specific)
I would appreciate it if you labelled entries YES when FIC50 is 0.2 or higher, otherwise NO.

Is it the case that NNC(=O)c1ccncc1 [isoniazid] + O=[N+]([O-])c1cn2c(n1)OC[C@@H](OCc1ccc(OC(F)(F)F)cc1)C2 [pretomanid] has FIC50 reaching or exceeding 0.2? NO

And the next one, CC[C@@H](CO)NCCN[C@@H](CC)CO [ethambutol] + NC(=O)c1cnccn1 [pyrazinamide] ? NO

NC(=O)c1cnccn1 [pyrazinamide] + CO[C@H]1/C=C/O[C@@]2(C)Oc3c(C)c(O)c4c(O)c(c(/C=N/N5CCN(C)CC5)c(O)c4c3C2=O)NC(=O)/C(C)=C\C=C\[C@H](C)[C@H](O)[C@@H](C)[C@@H](O)[C@@H](C)[C@H](OC(C)=O)[C@@H]1C , same question. NO

Can you check CC(=O)NC[C@H]1CN(c2ccc(N3CCOCC3)c(F)c2)C(=O)O1 [linezolid] + CO[C@H]1/C=C/O[C@@]2(C)Oc3c(C)c(O)c4c(O)c(c(/C=N/N5CCN(C6CCCC6)CC5)c(O)c4c3C2=O)NC(=O)/C(C)=C\C=C\[C@H](C)[C@H](O)[C@@H](C)[C@@H](O)[C@@H](C)[C@H](OC(C)=O)[C@@H]1C [rifapentine] next? YES

Query COc1c(N2C[C@@H]3CCCN[C@@H]3C2)c(F)cc2c(=O)c(C(=O)O)cn(C3CC3)c12 [moxifloxacin] + O=[N+]([O-])c1cn2c(n1)OC[C@@H](OCc1ccc(OC(F)(F)F)cc1)C2 [pretomanid] next YES

Can you handle CC(C)/N=c1\cc2n(-c3ccc(Cl)cc3)c3ccccc3nc-2cc1Nc1ccc(Cl)cc1 [clofazimine] + NC(=O)c1cnccn1 [pyrazinamide] next? NO

Each recorded value in this set is attributed to the supplement of paper PMC8617591.
